Biological target: T1, C5a receptor (Homo sapiens, UniProt P21730)
T1 construct: Neutrophils were purified from human peripheral blood; endogenous in cells; host or cells: neutrophils from human peripheral blood
T1 sequence (P21730 1-350): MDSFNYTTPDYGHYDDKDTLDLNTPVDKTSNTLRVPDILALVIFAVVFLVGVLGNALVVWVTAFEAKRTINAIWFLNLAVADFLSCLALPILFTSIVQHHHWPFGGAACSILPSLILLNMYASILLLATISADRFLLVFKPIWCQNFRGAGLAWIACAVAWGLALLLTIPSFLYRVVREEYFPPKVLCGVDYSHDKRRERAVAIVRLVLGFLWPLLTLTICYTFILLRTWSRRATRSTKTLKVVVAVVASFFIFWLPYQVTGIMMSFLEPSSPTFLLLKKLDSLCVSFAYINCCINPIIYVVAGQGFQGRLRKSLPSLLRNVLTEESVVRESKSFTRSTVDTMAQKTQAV
Assay: Receptor binding assay: displacement of [125I]Bolton-Hunter labelled C5a from PMNL membranes
Conditions: Table 4; [125I]BH-C5a 4.0 pM, PMNL membranes, Cheng-Prusoff
Assign log10(Ki) to each entry below.
Hi team, quick reminder: these entries are log10 of Ki (nM).

Item C5a (1-70, T1M, C275, M7OC) (protein, UniProt P01031 678-747, looked up, variant T1M C27S M70C, C5a anaphylatoxin) MLQKKIEEIAAKYKHSVVKKCCYDGASVNNDETCEQRAARISLGPRCIKAFTECCVVASQLRANISHKDC has what recorded log10(Ki)?
-0.40

Same lookup for C5a (1-71, T1M, C27S, Q71S) (protein, UniProt P01031 678-751, looked up, variant T1M C27S Q71S, C5a anaphylatoxin, agonist, included for comparison) C5a anaphylatoxin: MLQKKIEEIAAKYKHSVVKKCCYDGASVNNDETCEQRAARISLGPRCIKAFTECCVVASQLRANISHKDMSLGR , please.
0.88

Same lookup for C5a (1-72, T1M, C27S, L72C) (protein, UniProt P01031 678-751, looked up, variant T1M C27S L72C, C5a anaphylatoxin truncated to residues 1-72) C5a anaphylatoxin: MLQKKIEEIAAKYKHSVVKKCCYDGASVNNDETCEQRAARISLGPRCIKAFTECCVVASQLRANISHKDMQCGR , please.
-0.05

Same lookup for C5a (1-71, T1M, C27S, Q71R) (protein, UniProt P01031 678-751, looked up, variant T1M C27S Q71R, C5a anaphylatoxin truncated to residues 1-71, agonist, included for comparison) C5a anaphylatoxin: MLQKKIEEIAAKYKHSVVKKCCYDGASVNNDETCEQRAARISLGPRCIKAFTECCVVASQLRANISHKDMRLGR , please.
-0.46

Same lookup for 8 Cys: cysteine-adduct of the C5a analogue No. 8 (protein, UniProt P01031 678-751, looked up, variant T1M C27S Q71C, C5a anaphylatoxin cysteine adduct) C5a anaphylatoxin: MLQKKIEEIAAKYKHSVVKKCCYDGASVNNDETCEQRAARISLGPRCIKAFTECCVVASQLRANISHKDMCLGR , please.
0.45

Same lookup for C5a (1-71, T1M, C275, Q71H) (protein, UniProt P01031 678-751, looked up, variant T1M C27S Q71H, C5a anaphylatoxin, agonist, included for comparison) C5a anaphylatoxin: MLQKKIEEIAAKYKHSVVKKCCYDGASVNNDETCEQRAARISLGPRCIKAFTECCVVASQLRANISHKDMHLGR , please.
-0.82

Same lookup for C5a (1-71, T1M, C275, Q71L) (protein, UniProt P01031 678-751, looked up, variant T1M C27S Q71L, C5a anaphylatoxin, agonist, included for comparison) C5a anaphylatoxin: MLQKKIEEIAAKYKHSVVKKCCYDGASVNNDETCEQRAARISLGPRCIKAFTECCVVASQLRANISHKDMLLGR , please.
-1.46
